system.under.test: T1, ECF02_915
T1 chain: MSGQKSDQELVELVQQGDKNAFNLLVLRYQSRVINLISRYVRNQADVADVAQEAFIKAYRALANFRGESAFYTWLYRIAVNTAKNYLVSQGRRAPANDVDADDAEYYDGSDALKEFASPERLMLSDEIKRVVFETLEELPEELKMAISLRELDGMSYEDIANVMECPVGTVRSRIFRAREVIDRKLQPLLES
Quick list: fold repression per entry.
measurement.type: fold repression

>>> value_reported("AS27_1331 (protein) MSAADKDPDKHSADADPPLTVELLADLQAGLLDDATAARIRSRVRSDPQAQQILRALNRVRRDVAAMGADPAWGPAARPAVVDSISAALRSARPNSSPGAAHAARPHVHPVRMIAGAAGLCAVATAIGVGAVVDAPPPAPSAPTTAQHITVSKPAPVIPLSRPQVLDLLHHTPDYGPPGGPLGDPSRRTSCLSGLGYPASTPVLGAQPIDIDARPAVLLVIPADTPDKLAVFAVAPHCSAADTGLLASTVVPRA")
2.72
>>> value_reported("AS03_1198 (protein) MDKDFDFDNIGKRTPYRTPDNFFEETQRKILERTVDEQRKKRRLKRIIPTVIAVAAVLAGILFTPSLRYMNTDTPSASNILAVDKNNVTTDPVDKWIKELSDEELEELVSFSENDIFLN")
2.43
>>> value_reported("AS15_524 (protein) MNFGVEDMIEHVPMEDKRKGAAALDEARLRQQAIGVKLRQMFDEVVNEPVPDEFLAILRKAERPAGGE")
2.67
>>> value_reported("AS25_1645 (protein) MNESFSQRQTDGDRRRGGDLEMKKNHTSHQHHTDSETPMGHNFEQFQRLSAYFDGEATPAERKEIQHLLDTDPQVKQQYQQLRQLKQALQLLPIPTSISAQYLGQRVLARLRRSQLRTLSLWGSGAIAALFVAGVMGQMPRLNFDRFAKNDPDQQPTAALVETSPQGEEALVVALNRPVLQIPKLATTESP")
6.91
>>> value_reported("AS33_423 (protein) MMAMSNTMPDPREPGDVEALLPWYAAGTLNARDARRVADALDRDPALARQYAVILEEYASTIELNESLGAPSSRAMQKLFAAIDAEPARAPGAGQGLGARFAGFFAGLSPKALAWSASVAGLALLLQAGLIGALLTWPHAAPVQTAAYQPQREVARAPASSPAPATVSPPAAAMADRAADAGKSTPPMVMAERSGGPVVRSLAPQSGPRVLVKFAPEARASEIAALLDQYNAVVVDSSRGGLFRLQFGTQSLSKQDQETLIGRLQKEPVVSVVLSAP")
4.97
>>> value_reported("AS25_1643_cl43 (protein) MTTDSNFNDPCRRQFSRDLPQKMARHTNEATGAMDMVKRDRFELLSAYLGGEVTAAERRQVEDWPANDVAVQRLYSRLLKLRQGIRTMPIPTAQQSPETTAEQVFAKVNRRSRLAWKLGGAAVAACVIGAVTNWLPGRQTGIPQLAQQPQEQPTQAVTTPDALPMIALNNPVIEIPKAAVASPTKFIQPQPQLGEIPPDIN")
6.67
